- methodSummary: Quantitative High-Throughput drug screen in 47 multiple myeloma cell lines against the NCATS MIPE library collection: KMS12BM_JCRB cell viability assay (AID 1918971); note: nearly all actives have a fitted effect of over 35% in size
- runParameters: KMS12BM myeloma viability, CellTiter-Glo ATP, 48 h; series mostly up to 45.8 µM
Inconclusive results are not listed. Active and inactive are the calls of the source. Calls come from the whole dose curve; as a rule, active = well fitted cell-killing curve with a large enough effect; inconclusive = small, poorly fitted or top-dose-only effect, or effect the other way; inactive = no such curve, though single readings can be large or run the other way.
Return exactly one item of True for active, False for inactive

Here are 5 compounds together with their reported answers.
compound	classification
COc1cccc2c1[C@]13CCN(CC4CC4)[C@H](C2)[C@]1(OC)CCC(=O)C3	False
C=C[C@@H]1CN2CCC1C[C@H]2[C@H](O)c1ccnc2ccccc12 (stereo partly drawn)	True
c1ccc(CCCN2CCN(CCOC(c3ccccc3)c3ccccc3)CC2)cc1	True
C[C@@H]1O[C@@H](O[C@@H]2C=C3CC[C@@H]4[C@@H](CC[C@]5(C)[C@H](c6ccc(=O)oc6)CC[C@@]45O)[C@@]3(C)CC2)[C@H](O)[C@H](O)[C@H]1O	True
CC[C@@H]1[C@@H](C)O[C@@](O)([C@@H](C)[C@H](O)[C@H](C)[C@H]2OC(=O)C=CC=C[C@@H](C)[C@@H]([C@@H](C)[C@@H](O)[C@H](C)[C@@]3(O)C[C@H](O[C@H]4C[C@H](O)[C@H](O)[C@H](C)O4)[C@H](CC)[C@@H](C)O3)OC(=O)C=CC=C[C@@H]2C)C[C@H]1O[C@H]1C[C@H](O)[C@H](O)[C@H](C)O1	True

**Q:** Assay result, entry CCNC(=O)C[C@@H]1N=C(c2ccc(Cl)cc2)c2cc(OC)ccc2-n2c(C)nnc21 — outcome?
**A:** True

**Q:** Assay result, entry COc1ccc2c(c1)CN(C)CC2c1ccc(Cl)c(Cl)c1 (stereo not drawn) — outcome?
**A:** True

**Q:** Assay result, entry C[C@]12COC(=O)C[C@@H]1CC[C@@H]1[C@H]2CC[C@@]2(C)[C@H]1CC[C@]2(C)O — outcome?
**A:** True
